# targetDesc: human σ1 receptor (Homo sapiens, UniProt Q99720)
# Construct: expressed in transfected cells; host or cells: HEK-293
# Sequence (Q99720 whole entry): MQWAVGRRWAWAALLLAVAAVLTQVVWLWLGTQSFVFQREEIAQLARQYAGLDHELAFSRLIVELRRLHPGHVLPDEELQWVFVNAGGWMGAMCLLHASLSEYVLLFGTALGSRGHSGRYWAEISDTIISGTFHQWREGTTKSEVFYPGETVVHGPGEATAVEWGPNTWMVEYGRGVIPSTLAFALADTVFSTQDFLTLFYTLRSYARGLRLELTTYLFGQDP
# assayDetails: Human σ1 receptor radioligand assay ([3H](+)-pentazocine)
# Format: binding

| compound | Ki |
| --- | --- |
| CN(C)[C@@H](CNC(=O)N1CC(C)(C)c2nc(C#N)ccc21)c1ccccc1 | < 0.1 µM |
| Cc1ccc2c(n1)C(C)(C)CN2C(=O)[C@H]1CC[C@H](N(C)Cc2ccccc2F)CC1 | < 0.1 µM |
| Cc1ccc2c(n1)C(C)(C)CN2C(=O)NC[C@@H](c1ccccc1)N(C)C | < 0.1 µM |
| Cc1ccc2c(n1)C(C)(C)CN2C(=O)NC[C@H](Cc1ccccc1)N(C)C | < 0.1 µM |
| CCN[C@@H](CNC(=O)N1CC(C)(C)c2nc(C)ccc21)c1ccccc1 | 0.1 to 0.5 µM |
| CC1(C)CN(C(=O)N2CCC3(CCN(CCC4CCOCC4)CC3)C2)c2cccnc21 | 0.1 to 0.5 µM |
| Cc1ccc2c(n1)C(C)(C)CN2C(=O)N1CCC[C@H](N(C)CCc2ccccc2)C1 | 0.1 to 0.5 µM |
| COc1ccc(C(CNC(=O)N2CC(C)(C)c3nc(C)ccc32)N(C)C)cc1 (stereo not shown) | < 0.1 µM |
| Cc1ccc2c(n1)C(C)(C)CN2C(=O)NCC(c1ccccc1)N(C)C (stereo not shown) | < 0.1 µM |
| Cc1ccc2c(n1)C(C)(C)CN2C(=O)NC1CCN(CCc2ccccc2)CC1 | 0.1 to 0.5 µM |

* * *

Let's look at some molecules and their measured Ki.
# targetDesc: human σ2/TMEM97 receptor (Homo sapiens, UniProt Q5BJF2)
# Construct: expressed in transfected cells; host or cells: HEK-293
# Sequence (Q5BJF2 whole entry): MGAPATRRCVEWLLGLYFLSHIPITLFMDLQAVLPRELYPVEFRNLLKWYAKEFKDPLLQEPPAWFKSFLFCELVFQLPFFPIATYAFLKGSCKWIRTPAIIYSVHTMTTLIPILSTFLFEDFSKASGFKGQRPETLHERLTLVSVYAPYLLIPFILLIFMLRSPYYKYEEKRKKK
# assayDetails: Binding assay to human σ2/TMEM97 receptor ([3H]-DTG)
# conditionInfo: transfected HEK-293 membranes, 10 nM [3H]-DTG, 25° C., 120 minutes; read-out: Binding σ-[…] (binding to σ2-receptor expressed as Ki)

| molecule | Ki |
| --- | --- |
| Cc1ccc2c(n1)C(C)(C)CN2C(=O)NC1CCN(Cc2cccc(F)c2)CC1 [Example 26] | > 1000 nM |
| Cc1ccc2c(n1)C(C)(C)CN2C(=O)N1C[C@H]2CN(Cc3ccccc3)C[C@H]2C1 [Example 36] | 500 to 1000 nM |
| CC1(C)CN(C(=O)N2CCC3(CCN(Cc4ccc(F)c(C#N)c4)CC3)C2)c2cccnc21 [Example 143] | < 100 nM |
| Cc1ccc2c(n1)C(C)(C)CN2C(=O)[C@H]1CC[C@H](N(C)Cc2ccc(F)c(C#N)c2)CC1 [Example 181] | < 100 nM |
| Cc1ccc2c(n1)C(C)(C)CN2C(=O)N1CCC2(CCN(Cc3ccccc3)CC2)C1 [Example 80] | < 100 nM |
| Cc1ccc2c(n1)C(C)(C)CN2C(=O)[C@H]1CC[C@H](NCc2ccccc2F)CC1 [Example 188] | < 100 nM |
| Cc1ccc2c(n1)C(C)(C)CN2C(=O)C1CCN(Cc2ccccc2)CC1 [Example 123] | 500 to 1000 nM |
| Cc1ccc2c(n1)C(C)(C)CN2C(=O)NC1CCN(CCc2ccccc2)CC1 [Example 27] | < 100 nM |
| Cc1ccc2c(n1)C(C)(C)CN2C(=O)N1CCC(NCc2ccccc2)CC1 [Example 115] | 100 to 500 nM |
| Cc1ccc2c(n1)C(C)(C)CN2C(=O)NC[C@@H](c1ccc(F)cc1)N(C)C [Example 33] | > 1000 nM |
| CN(Cc1ccccc1)[C@H]1CC[C@H](C(=O)N2CC(C)(C)c3ncccc32)CC1 [Example 138] | < 100 nM |
| CN[C@@H](CNC(=O)N1CC(C)(C)c2nc(C)ccc21)c1ccccc1 [Example 112] | > 1000 nM |
| Cc1ccc2c(n1)C(C)(C)CN2C(=O)[C@H]1CC[C@H](N(C)Cc2ncccc2F)CC1 [Example 178] | 100 to 500 nM |
| CN(Cc1ccccc1)C1CCN(C(=O)N2CCc3ncccc32)CC1 [Example 51] | 100 to 500 nM |
| Cc1ccc2c(n1)C(C)(C)CN2C(=O)NC[C@@H](c1cccc(F)c1)N(C)C [Example 34] | > 1000 nM |
| CN(Cc1ccccc1)[C@H]1CC[C@H](C(=O)N2CC(C)(C)c3ncc(F)cc32)CC1 [Example 187] | < 100 nM |
| CC1(C)CN(C(=O)NC2CN(Cc3ccccc3)C2)c2cccnc21 [Example 88] | > 1000 nM |

Reference source: patent US20240174671A1
